- Assay summary: Cmax in Sprague-Dawley rat at 10 mg/kg, po
- Assay type: ADME, organism-based
- Set-up: dose 10 mg/kg, route oral
- Condition description: in vivo
Observed property: Cmax (ng/mL)
Write the value in ng/mL as a bare number.

Record request: Cmax value, item CO[C@H]1C[C@@H]2CC[C@@H](C)[C@@](O)(O2)C(=O)C(=O)N2CCCC[C@H]2C(=O)O[C@H]([C@H](C)C[C@@H]2CC[C@@H](OCCO)[C@H](OC)C2)CC(=O)[C@H](C)/C=C(\C)[C@@H](O)[C@@H](OC)C(=O)[C@H](C)C[C@H](C)\C=C/C=C/C=C/1C
126

* * *

- Test system: Rattus norvegicus
- Assay summary: Prodrug conversion in rat assessed as everolimus formation by measuring everolimus AUC at 2 mg/kg, iv
- Type: ADME, organism-based
- Condition description: in vivo
Observed property: AUC (ng·h/mL)
Reply numerically in ng·h/mL, unit not repeated.

Which AUC value belongs to CO[C@H]1C[C@@H]2CC[C@@H](C)[C@@](O)(O2)C(=O)C(=O)N2CCCC[C@H]2C(=O)O[C@H]([C@H](C)C[C@@H]2CC[C@@H](OCCOC(=O)CSC[C@H](NC(=O)CC[C@H](N)C(=O)O)C(=O)NCC(=O)O)[C@H](OC)C2)CC(=O)[C@H](C)/C=C(\C)[C@@H](O)[C@@H](OC)C(=O)[C@H](C)C[C@H](C)\C=C/C=C/C=C/1C ?
2500

* * *

- Assay summary: AUC (0 to infinity) in Sprague-Dawley rat at 10 mg/kg, po
- Type: ADME, organism-based
- Parameters: dose 10 mg/kg, route oral, time infinity
- Condition description: in vivo
Observed property: AUC(0-inf) (ng·h/mL)
Answer format: numeric, ng·h/mL implied, no suffix.

# input molecule: CO[C@H]1C[C@@H]2CC[C@@H](C)[C@@](O)(O2)C(=O)C(=O)N2CCCC[C@H]2C(=O)O[C@H]([C@H](C)C[C@@H]2CC[C@@H](OCCO)[C@H](OC)C2)CC(=O)[C@H](C)/C=C(\C)[C@@H](O)[C@@H](OC)C(=O)[C@H](C)C[C@H](C)\C=C/C=C/C=C/1C ; wanted: its AUC(0-inf)
454

* * *

- Assay summary: Tmax in Sprague-Dawley rat at 2.724 mg/kg, iv
- Type: ADME, organism-based
- Condition description: in vivo
Observed property: Tmax (min)
Give your result in min as a bare value.

Fill in the blank: the reported Tmax of CO[C@H]1C[C@@H]2CC[C@@H](C)[C@@](O)(O2)C(=O)C(=O)N2CCCC[C@H]2C(=O)O[C@H]([C@H](C)C[C@@H]2CC[C@@H](OCCOC(=O)CSC[C@H](NC(=O)CC[C@H](N)C(=O)O)C(=O)NCC(=O)O)[C@H](OC)C2)CC(=O)[C@H](C)/C=C(\C)[C@@H](O)[C@@H](OC)C(=O)[C@H](C)C[C@H](C)\C=C/C=C/C=C/1C is ____.
4.98

* * *

- Assay summary: AUC (0 to t) in Sprague-Dawley rat at 2.724 mg/kg, iv
- Format: ADME, organism-based
- Condition description: in vivo
Observed property: AUC(0-t)

Give its AUC(0-t) value. Item: CO[C@H]1C[C@@H]2CC[C@@H](C)[C@@](O)(O2)C(=O)C(=O)N2CCCC[C@H]2C(=O)O[C@H]([C@H](C)C[C@@H]2CC[C@@H](OCCOC(=O)CSC[C@H](NC(=O)CC[C@H](N)C(=O)O)C(=O)NCC(=O)O)[C@H](OC)C2)CC(=O)[C@H](C)/C=C(\C)[C@@H](O)[C@@H](OC)C(=O)[C@H](C)C[C@H](C)\C=C/C=C/C=C/1C
2490 ng·h/mL
